Attribution: PubChem BioAssay (EPA / NIEHS)

Read-out: Fatty acid synthase (Homo sapiens)
Experiment: LTEA_HepaRG_FASN: Life Technologies and Expression Analysis (LTEA) Assay for Fatty Acid Synthase (FASN) using HepaRG (AID 2283448)
Settings: mRNA level, 48 h; actives raise or lower the signal
Method: LTEA_HepaRG is a cell based, multiplexed-readout assay that uses HepaRG, a human liver cell line, with measurements taken at 48 hours after chemical dosing on a 96-well plate.LTEA_HepaRG_FASN is one of 102 assay component(s) measured in the LTEA HepaRG cell culture assay. It is a marker of Steatosis.Data from the assay component LTEA_HepaRG_FASN was analyzed into 1 endpoint. […]
The source made the active and inactive calls. The calls were made as follows: active = hit-call score of the fitted dose curve at least 0.9, where 1 is the maximum; inactive = score below 0.9.
Output constraint: value belongs to 1 for active, 0 for inactive

The examples below pair each entry with its known result.
{"molecule": "Oc1ccccc1O", "classification": 0}
{"molecule": "C=CCc1ccc(OC)c(OC)c1", "classification": 0}
{"molecule": "CCCC[C@H]1CN(CC2CCOCC2)C(=O)OC12CCN(C1(C)CCN(C(=O)c3c(C)ncnc3C)CC1)CC2", "classification": 0}
{"molecule": "O=C1OC(c2ccc(O)cc2)(c2ccc(O)cc2)c2ccccc21", "classification": 1}

// query Test call, this molecule: C/C=C/C=C/C(=O)O
// result 0

// query Test call, this molecule: CN(C)C(=O)NC1(c2ccccc2)CCN(CC[C@@]2(c3ccc(F)c(F)c3)CN(C(=O)c3ccccc3)CCO2)CC1
// result 1

// query Test call, this molecule: Cn1cnc2c1c(=O)[nH]c(=O)n2C
// result 0

// query Test call, this molecule: Nc1nc(Cl)nc2c1ncn2[C@H]1C[C@H](O)[C@@H](CO)O1
// result 1

// query Test call, this molecule: O=Cc1ccccc1C=O
// result 0

// query Test call, this molecule: CCCCCCCCCCCCCCCCO
// result 0

// query Test call, this molecule: CN(C)C(=O)NC1(c2ccccc2)CCN(CCC[C@]2(c3ccc(Cl)c(Cl)c3)CCCN(C(=O)c3ccccc3)C2)CC1
// result 1

// query Test call, this molecule: CCCCC(CC)COC(=O)CCCCCCCC(=O)OCC(CC)CCCC (configuration not stated)
// result 0

* * *

Read-out: Alpha-fetoprotein (AFP) gene, AFP (gene 174)
Assay: LTEA_HepaRG_AFP: Life Technologies and Expression Analysis (LTEA) Assay for Alpha-fetoprotein (AFP) gene using HepaRG (AID 2283472)
Conditions: mRNA level, 48 h; actives raise or lower the signal
Calls of active or inactive are those of the source. The calls were made as follows: active = hit-call score of the fitted dose curve at least 0.9, where 1 is the maximum; inactive = score below 0.9.
Output constraint: value belongs to 1 (active), 0 (inactive)

The examples below pair each entry with its known result.
{"compound": "CCCCC(CC)CO (stereo unspecified)", "classification": 0}
{"compound": "O=C(O)c1cccnc1", "classification": 0}
{"compound": "C/C=C/C=C/C(=O)O", "classification": 0}

// query Test call, this compound: CC(C)(C)c1ccccc1
// result 0

// query Test call, this compound: CS(=O)(=O)c1ccc([C@@H](C[C@H]2CCC(=O)C2)C(=O)Nc2cnccn2)cc1Cl
// result 1

// query Test call, this compound: O=C1OC(c2ccc(O)cc2)(c2ccc(O)cc2)c2ccccc21
// result 1

// query Test call, this compound: CC(=O)CC(c1ccccc1)c1c(O)c2ccccc2oc1=O (stereo unspecified)
// result 0

// query Test call, this compound: CC(C)c1cccc(C(C)C)c1
// result 0

// query Test call, this compound: Nc1nc(Cl)nc2c1ncn2[C@H]1C[C@H](O)[C@@H](CO)O1
// result 1

// query Test call, this compound: CCCC(=O)O
// result 0

* * *

Read-out: CFLAR gene, CFLAR (gene 8837)
Test: LTEA_HepaRG_CFLAR: Life Technologies and Expression Analysis (LTEA) Assay for CFLAR gene using HepaRG (AID 2283455)
Settings: mRNA level, 48 h; actives raise or lower the signal
Protocol: LTEA_HepaRG is a cell based, multiplexed-readout assay that uses HepaRG, a human liver cell line, with measurements taken at 48 hours after chemical dosing on a 96-well plate.LTEA_HepaRG_CFLAR is one of 102 assay component(s) measured in the LTEA HepaRG cell culture assay. It is a marker of Cell proliferation, survival, death.Data from the assay component LTEA_HepaRG_CFLAR was analyzed into 1 endpoint. […]
Active and inactive are the calls of the source. Rule for the calls: active = hit-call score of the fitted dose curve at least 0.9, where 1 is the maximum; inactive = score below 0.9.
Output constraint: value belongs to True = active, False = inactive

The examples below pair each entry with its known result.
{"molecule": "Cc1cc(SC2=C(O)C[C@@](CCc3ccc(N)cc3)(C(C)C)OC2=O)c(C(C)(C)C)cc1CO", "classification": "False"}
{"molecule": "Cc1occc(=O)c1O", "classification": "False"}
{"molecule": "Oc1ccc(O)cc1", "classification": "False"}
{"molecule": "NC1CCCCC1", "classification": "False"}
{"molecule": "CC(C)OC(=O)C(C)(C)Oc1ccc(C(=O)c2ccc(Cl)cc2)cc1", "classification": "False"}
{"molecule": "O=C(O)CC(O)(CC(=O)O)C(=O)O", "classification": "False"}
{"molecule": "CC(=O)[C@@]1(O)CC[C@H]2[C@@H]3CCC4=CC(=O)CC[C@]4(C)[C@H]3CC[C@@]21C", "classification": "False"}
{"molecule": "Nc1nc(=S)c2[nH]cnc2[nH]1", "classification": "False"}
{"molecule": "COC(=O)CCC(=O)OC", "classification": "False"}
{"molecule": "Cc1ccc(C(C)(C)C)c(O)c1", "classification": "False"}

Now look at this entry.
// query Test call, this molecule: C/C=C/C=C/C(=O)O
// result False

* * *

Read-out: Pselectin, SELP (gene 6403)
Test: BSK_4H_Pselectin: BioMAP Diversity Plus: 4H Assay for Pselectin Biomarker Activity (AID 2283026)
Conditions: primary human endothelial cells (HUVEC); actives raise or lower the signal
Calls of active or inactive are those of the source. The calls were made as follows: active = hit-call score of the fitted dose curve at least 0.9, where 1 is the maximum; inactive = score below 0.9.
Output constraint: value belongs to label 1 for active, label 0 for inactive

{"compound": "CCCCc1nc2cccnc2n1Cc1ccc(-c2ccccc2-c2nnn[nH]2)cc1", "classification": "label 0"}

Now look at this entry.
// query Test call, this compound: COC(=O)CCCC(=O)OC
// result label 0

* * *

Test: APR_HepG2_NuclearSize_72hr: Apredica 72-hour HepG2 Assay for Nuclear Size (AID 2282925)
Details: high-content imaging, actives raise or lower the signal
The source made the active and inactive calls. How the source made its calls: active means hit-call score of the fitted dose curve at least 0.9, where 1 is the maximum; inactive means score below 0.9.
Output constraint: value belongs to yes (active), no (inactive)

// query Test call, this molecule: CC(C)(O)c1ccc(CNC(=O)c2cccnc2Oc2ccc(F)cc2)cc1
// result no

// query Test call, this molecule: C=CCCCCCCCCCCCC
// result no

// query Test call, this molecule: CC(=O)OCC(COC(C)=O)OC(C)=O
// result no

// query Test call, this molecule: CC(=O)CC(c1ccccc1)c1c(O)c2ccccc2oc1=O (stereo not given)
// result no

// query Test call, this molecule: CC1(C)C(=O)NC(=O)N1CO
// result no

// query Test call, this molecule: C/C=C/c1ccc(OC)cc1
// result no

* * *

Read-out: Monocyte Chemoattractant Protein-1 (MCP1), CCL2 (gene 6347)
Assay: BSK_4H_MCP1: BioMAP Diversity Plus: 4H Assay for Monocyte Chemoattractant Protein-1 (MCP1) Biomarker Activity (AID 2283018)
Conditions: primary human endothelial cells (HUVEC); actives raise or lower the signal
Active and inactive are the calls of the source. How the source made its calls: active means hit-call score of the fitted dose curve at least 0.9, where 1 is the maximum; inactive means score below 0.9.
Output constraint: value belongs to active, inactive

{"molecule": "CN(C)CCCN(C)CCCN(C)C", "classification": "inactive"}
{"molecule": "Nc1nc(Cl)nc2c1ncn2[C@H]1C[C@H](O)[C@@H](CO)O1", "classification": "inactive"}
{"molecule": "CCC(C)N(C)C(=O)c1cc2ccccc2c(-c2ccccc2Cl)n1 (stereo not given)", "classification": "inactive"}

// query Test call, this molecule: C/C=C/c1ccc(OC)cc1
// result inactive

// query Test call, this molecule: O=C(Oc1ccccc1)c1cccc(C(=O)Oc2ccccc2)c1
// result inactive

// query Test call, this molecule: CCCCCCCCCCCCCCCCO
// result inactive

// query Test call, this molecule: O=C(NS(=O)(=O)/C=C/c1cccs1)c1ccc(F)cc1Br
// result inactive

// query Test call, this molecule: CCc1cc(C2=C(C(=O)O)N(c3ccccc3C(F)(F)F)S(=O)(=O)c3ccccc32)cc2c1OCO2
// result inactive

// query Test call, this molecule: O=C1CCCCC1
// result inactive

// query Test call, this molecule: Cc1ccc(-c2cc(C(F)(F)F)nn2-c2ccc(S(N)(=O)=O)cc2)cc1
// result active

// query Test call, this molecule: C=CCCCCCCCCCCCC
// result inactive

// query Test call, this molecule: O=C1c2c(O)cccc2Cc2cccc(O)c21
// result inactive

// query Test call, this molecule: CCCC[C@H]1CN(CC2CCOCC2)C(=O)OC12CCN(C1(C)CCN(C(=O)c3c(C)ncnc3C)CC1)CC2
// result inactive

// query Test call, this molecule: CC(=O)O[C@]1(C(C)=O)CC[C@H]2[C@@H]3C=C(Cl)C4=CC(=O)[C@@H]5C[C@@H]5[C@]4(C)[C@H]3CC[C@@]21C
// result inactive
